# Test Name: in vitro; also: reference of the scale not given here
# Condition Set: human, HepG2-A16-CD81EGFP cells, uninfected
Each item that follows carries a reported viability at 48 h, 3 µM.

Solved entries:
{"Compound": "Cc1cccc(NC2=C(NC(=O)c3ccccc3)C(=O)c3ccccc3C2=O)c1", "Result": "95%"}
{"Compound": "COc1ccc(NC2=NC3(CCCCC3)N=C(N)N2)cc1", "Result": "97%"}
{"Compound": "CCCN1CCc2c(sc3nc(SC)n(-c4ccccc4)c(=O)c23)C1", "Result": "101%"}
{"Compound": "CCOC(=O)c1c(NC(=O)c2ccccc2)sc2c(O)c(CN(CC)CC)ccc12", "Result": "102%"}

# ---- query compound ----
Exam item: Consider the compound COc1cc(NC2CCCCC2O)c2nc(-c3ccc(Cl)cc3)ccc2c1 (centres unmarked) and give its measured viability at 48 h, 3 µM.
Marked response: 101%
